Reference for the values: patent US7951815B2

System: batrachotoxin (BTX) binding site of the sodium channel
Assay: Affinity to the batrachotoxin (BTX) binding site of the sodium channel
Settings: Table III; rat cerebrocortex synaptosomes; test concentration not given
value.kind: BTX inhibition

CC(C)CC1NC2(CCN(C(=O)CC3CCCC3)CC2)N(Cc2ccc(F)cc2)C1=O (stereo not shown) ... 41
CCCCC(=O)N1CCC2(CC1)NC(CCSC)C(=O)N2Cc1cc(C)cc(C)c1 (stereo not shown) ... 40
O=C(C=Cc1ccccc1)N1CCC2(CC1)NC(Cc1ccccc1)C(=O)N2Cc1ccccc1 (stereo not shown) ... 62
COC(=O)c1ccc(CN2C(=O)C(C(C)C)NC23CCN(C(=O)c2ccc(C(F)(F)F)c(F)c2)CC3)cc1 (stereo not shown) ... 44
